Where do the numbers come from? From ChEMBL document CHEMBL4513216.

experiment summary: Toxicity liver stage against HepG2, at 10uM
Type: cell-based
Parameters: test concentration 10 uM, cell line HepG2-A16-CD81EGFP
condition info: human, HepG2-A16-CD81EGFP cells; read-out: INHIBITION
Entries annotated with measured cytotoxicity at 10 µM
Please respond with the number in % and leave the unit unwritten.

{"compound": "CCc1cc(C)c(C(=O)N2CCCC2CC(=O)c2cnn(C)c2)o1 (stereo not drawn)", "measurement units": "%", "result": 5.22}

# input Which cytotoxicity at 10 µM reading was recorded for the compound `CCc1nnc2n1CCN(C(=O)c1ccc(C(F)(F)F)nc1C)C2` ?
# output -7.28

# input Which cytotoxicity at 10 µM reading was recorded for the compound Cc1nc(C)n(CC2CN(Cc3cccs3)Cc3nccn3C2)n1 (stereo not drawn) ?
# output -133

# input Which cytotoxicity at 10 µM reading was recorded for the compound `Cc1nc(N2CCCC2)ncc1-c1cc(O)nc(N2CCN(C)CC2)n1` ?
# output 2.6

# input Which cytotoxicity at 10 µM reading was recorded for the compound `O=C(CCc1ccc(F)cc1)NCc1ccnc(NC2CC2)c1` ?
# output -8.78

# input Which cytotoxicity at 10 µM reading was recorded for the compound `CCCc1cc(NCc2cc(C)on2)n2nccc2n1` ?
# output -6.85

# input Which cytotoxicity at 10 µM reading was recorded for the compound `CCc1nc(CN2CCC(C(=O)N(C)C)CC2)cs1` ?
# output 3.05

# input Which cytotoxicity at 10 µM reading was recorded for the compound `COCCN(c1cc(C)nc2nc(C(F)(F)F)nn12)C1CCCC1` ?
# output -0.0692
